The reported measurements were obtained from paper PMC4607647.

- Measured Target: LG-PARP10cat (Homo sapiens, UniProt Q53GL7, L926G)
- Sequence (Q53GL7 806-1025 L926G): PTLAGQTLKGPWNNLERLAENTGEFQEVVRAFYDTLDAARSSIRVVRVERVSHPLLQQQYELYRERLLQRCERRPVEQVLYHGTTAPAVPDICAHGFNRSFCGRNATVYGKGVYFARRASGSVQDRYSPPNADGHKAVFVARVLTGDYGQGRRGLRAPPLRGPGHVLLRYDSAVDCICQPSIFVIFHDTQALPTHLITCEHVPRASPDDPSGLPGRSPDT
- Type: biochemical
- Recorded Conditions: compared to parent dq scaffold 1
Endpoint Name: increase in potency against LG-PARP10cat compared to 1

- Substance Smiles: "O=C1NCCc2ccc(C(F)(F)F)cc21"
  Measured Target: "LG-PARP10cat (Homo sapiens, UniProt Q53GL7, L926G)"
  Reported Value: "2 fold"
